Tested on: MDA-MB-231
Experiment: Cytotoxicity assay (MTS, 72 h)
Format: cell-based
Details: Homo sapiens, MDA-MB-231, read-out: IC50 ± SEM (nM) MDA-MB-231; Table 2
IC50: recorded values

Example compounds with recorded IC50:
compound: CC(=O)O[C@H]1C(=O)[C@@]2(C)[C@H]([C@H](OC(=O)c3ccccc3)[C@]3(O)C[C@H](OC(=O)[C@H](O)[C@@H](NC(=O)c4ccccc4)c4ccccc4)C(C)=C1C3(C)C)[C@]1(OC(C)=O)CO[C@@H]1C[C@@H]2O [Paclitaxel, reference compound]
IC50: 2.3 nM

compound: COc1ccc2c(c1)NC(=O)CN2c1nc(C)nc2c1CCC2
IC50: 1.7 nM

compound: CCNc1nc2c(c(N3CC(=O)Nc4cc(OC)ccc43)n1)CCC2
IC50: 1 nM

Here's the next entry for you.
Query: Item COc1ccc(N(C)c2nc(C)nc3ccccc23)cc1 [Verubulin, reference compound] has what recorded IC50?
Result: 1.9 nM
